# subject.of.test: T1, Glycoprotein VI extracellular domain (Gln21-Lys267) (Homo sapiens, UniProt Q9HCN6 SEQ:1-247)
# T1 chain: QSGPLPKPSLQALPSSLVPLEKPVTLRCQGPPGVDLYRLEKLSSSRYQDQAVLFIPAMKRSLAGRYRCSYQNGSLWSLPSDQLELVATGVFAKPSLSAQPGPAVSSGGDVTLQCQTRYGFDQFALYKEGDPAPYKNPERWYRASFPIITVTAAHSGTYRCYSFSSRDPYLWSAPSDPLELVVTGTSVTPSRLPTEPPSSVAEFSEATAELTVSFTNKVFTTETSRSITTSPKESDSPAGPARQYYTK
# protocol.details: filter; p374 states 2-4 nM; buffer F (150 mM NaCl, 2 mM CaCl2), 37 C
# recorded.conditions: tags: C-terminal His6; R&D Systems 3627-GP; label: 5'-32P
property.name: Kd

q: Please indicate Kd recorded for GGAGGACGGCGCGCCUGGCAUAAGCCUCC (ssRNA, RB540 with PS G8-G9 and G9-C10) [RB566]
a: ~2.45 nM
